Data origin: patent US20220290140A1

target: P-gp (Homo sapiens); construct: expressed in transfected cells; host or cells: MDCK (canine kidney) cells expressing P-gp; assay: MDCK-P-gp cell model of permeability (efflux ratio); assay type: in vitro ADME; conditions: dog, MDCK-MDR1
Sequence (P08183 whole entry): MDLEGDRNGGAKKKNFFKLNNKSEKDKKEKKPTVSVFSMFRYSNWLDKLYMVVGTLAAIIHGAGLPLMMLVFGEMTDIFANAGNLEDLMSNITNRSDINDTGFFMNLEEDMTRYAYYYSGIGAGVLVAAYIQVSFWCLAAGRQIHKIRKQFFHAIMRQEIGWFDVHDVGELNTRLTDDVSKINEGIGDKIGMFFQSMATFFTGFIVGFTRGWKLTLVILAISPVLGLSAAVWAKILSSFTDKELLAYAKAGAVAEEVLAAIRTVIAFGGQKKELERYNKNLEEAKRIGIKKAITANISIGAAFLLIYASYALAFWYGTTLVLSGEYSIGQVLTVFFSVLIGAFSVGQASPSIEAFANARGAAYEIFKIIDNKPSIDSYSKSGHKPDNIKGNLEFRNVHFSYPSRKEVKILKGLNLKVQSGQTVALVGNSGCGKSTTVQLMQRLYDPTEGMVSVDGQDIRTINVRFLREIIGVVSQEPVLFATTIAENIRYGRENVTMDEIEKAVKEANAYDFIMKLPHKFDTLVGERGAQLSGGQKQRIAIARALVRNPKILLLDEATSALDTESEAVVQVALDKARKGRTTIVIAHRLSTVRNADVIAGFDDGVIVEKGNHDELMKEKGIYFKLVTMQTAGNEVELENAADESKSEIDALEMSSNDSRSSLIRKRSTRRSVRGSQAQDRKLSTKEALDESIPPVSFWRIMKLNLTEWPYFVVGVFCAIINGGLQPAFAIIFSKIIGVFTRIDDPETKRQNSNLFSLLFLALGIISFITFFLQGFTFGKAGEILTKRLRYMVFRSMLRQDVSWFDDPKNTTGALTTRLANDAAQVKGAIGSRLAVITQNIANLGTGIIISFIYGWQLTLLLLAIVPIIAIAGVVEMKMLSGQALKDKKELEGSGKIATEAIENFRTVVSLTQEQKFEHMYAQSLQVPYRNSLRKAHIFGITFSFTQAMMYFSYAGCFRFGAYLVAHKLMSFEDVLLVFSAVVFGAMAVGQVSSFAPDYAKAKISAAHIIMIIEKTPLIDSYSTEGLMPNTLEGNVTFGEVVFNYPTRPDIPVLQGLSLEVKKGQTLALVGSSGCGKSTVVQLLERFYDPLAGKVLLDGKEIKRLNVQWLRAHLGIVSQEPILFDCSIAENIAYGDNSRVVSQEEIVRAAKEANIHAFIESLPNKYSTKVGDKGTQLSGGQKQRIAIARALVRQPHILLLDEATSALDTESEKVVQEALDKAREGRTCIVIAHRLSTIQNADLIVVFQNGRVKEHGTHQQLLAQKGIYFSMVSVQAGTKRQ
endpoint: efflux ratio
# print the numeric value only

Provide the reported efflux ratio (system: P-gp (Homo sapiens)) for "O=C(Cc1ccc(-c2nncnn2)cc1)NCCF"
1.71

* * *

target: BCRP (Homo sapiens, UniProt Q9UNQ0); construct: expressed in transfected cells; host or cells: MDCK (canine kidney) cells expressing BCRP; assay: in vitro; format: in vitro ADME; conditions: dog
Sequence (Q9UNQ0 whole entry): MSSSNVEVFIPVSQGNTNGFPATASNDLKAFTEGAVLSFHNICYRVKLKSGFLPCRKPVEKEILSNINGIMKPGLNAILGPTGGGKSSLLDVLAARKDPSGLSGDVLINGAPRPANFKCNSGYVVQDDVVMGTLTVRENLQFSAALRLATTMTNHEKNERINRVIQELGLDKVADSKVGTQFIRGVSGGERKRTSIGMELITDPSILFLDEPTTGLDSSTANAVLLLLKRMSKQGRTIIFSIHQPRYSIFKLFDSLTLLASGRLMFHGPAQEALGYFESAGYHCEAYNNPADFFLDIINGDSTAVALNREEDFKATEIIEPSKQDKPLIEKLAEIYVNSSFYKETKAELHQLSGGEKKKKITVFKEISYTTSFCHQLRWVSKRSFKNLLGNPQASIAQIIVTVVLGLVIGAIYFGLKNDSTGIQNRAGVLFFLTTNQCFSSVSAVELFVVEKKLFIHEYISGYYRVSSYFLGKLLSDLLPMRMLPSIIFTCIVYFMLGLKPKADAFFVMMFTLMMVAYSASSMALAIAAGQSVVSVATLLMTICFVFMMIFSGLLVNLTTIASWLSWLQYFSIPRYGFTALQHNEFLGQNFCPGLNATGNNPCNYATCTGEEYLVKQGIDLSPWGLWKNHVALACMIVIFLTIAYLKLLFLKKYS
endpoint: efflux ratio
# print the numeric value only

Please list efflux ratio recorded for the compound "O=C(Cc1ccc(-c2nncnn2)cc1)NCC[18F]"
0.51

Please list efflux ratio recorded for the compound "O=C(Cc1ccc(-c2nncnn2)cc1)NCCF"
0.51

* * *

assay: Plasma protein binding (PPB); format: in vitro ADME; conditions: rat, read-out: PPB (rat) unbound
endpoint: fraction unbound
# print the numeric value only

Please list fraction unbound recorded for the compound O=C(Cc1ccc(-c2nncnn2)cc1)NCC[18F] [Compound 1]
0.375
